These entries and their values trace back to paper PMC5130005.

Below, each entry is listed alongside its reported CC50 at 72 h.
ASSAY_TEXT: cell viability, MRC-5 normal lung fibroblasts
Assay type: cell-based
RUN_CONDITIONS: MRC-5 human normal lung fibroblasts, read-out: LC50, MRC-5 cells
// units = µM; emit number, no label

CCCCN1C(=O)/C(=C/C(C)=O)c2ccccc21 [Compound 4]; 25.5

--- query ---
Query block: Fill in: CC50 at 72 h of CC(=O)/C=C1/C(=O)N(Cc2ccccc2)c2ccccc21 [Compound 5] is ___
Result block: 22.7

----------
System: HCT 116 cells
In plain terms, low GI50, meaning strictly below 8 µM, gives criterion met, and everything else gives criterion not met.

For orientation, consider the following solved cases.
CN1C(=O)/C(=C/C(=O)c2ccccc2)c2ccccc21; criterion not met
CN1C(=O)/C(=C/C(=O)c2cccc(C(F)(F)F)c2)c2ccccc21; criterion not met

Query block: I'd appreciate it if you could check whether CN1C(=O)/C(=C/C(=O)c2ccc(C(F)(F)F)cc2)c2ccccc21 has GI50 smaller than 8 µM.
Result block: criterion not met

Query block: I'd appreciate it if you could check whether CCCCN1C(=O)/C(=C/C(C)=O)c2ccccc21 has GI50 smaller than 8 µM.
Result block: criterion met

Query block: I'd appreciate it if you could check whether CN1C(=O)/C(=C/C(=O)c2ccc(F)cc2)c2ccccc21 has GI50 smaller than 8 µM.
Result block: criterion not met

Query block: I'd appreciate it if you could check whether CN1C(=O)/C(=C/C(=O)c2ccccc2C(F)(F)F)c2ccccc21 has GI50 smaller than 8 µM.
Result block: criterion not met

Query block: I'd appreciate it if you could check whether CN1C(=O)/C(=C/C(=O)c2ccc(Cl)cc2)c2ccccc21 has GI50 smaller than 8 µM.
Result block: criterion not met

Query block: I'd appreciate it if you could check whether CC(=O)/C=C1/C(=O)N(Cc2ccccc2)c2ccccc21 has GI50 smaller than 8 µM.
Result block: criterion met

Query block: I'd appreciate it if you could check whether CCc1ccc(C(=O)/C=C2/C(=O)N(C)c3ccccc32)cc1 has GI50 smaller than 8 µM.
Result block: criterion not met

----------
TARGET_OR_TEST_SYSTEM: recombinant rat TrxR (Rattus norvegicus, UniProt O89049)
Sequence (O89049 1-499): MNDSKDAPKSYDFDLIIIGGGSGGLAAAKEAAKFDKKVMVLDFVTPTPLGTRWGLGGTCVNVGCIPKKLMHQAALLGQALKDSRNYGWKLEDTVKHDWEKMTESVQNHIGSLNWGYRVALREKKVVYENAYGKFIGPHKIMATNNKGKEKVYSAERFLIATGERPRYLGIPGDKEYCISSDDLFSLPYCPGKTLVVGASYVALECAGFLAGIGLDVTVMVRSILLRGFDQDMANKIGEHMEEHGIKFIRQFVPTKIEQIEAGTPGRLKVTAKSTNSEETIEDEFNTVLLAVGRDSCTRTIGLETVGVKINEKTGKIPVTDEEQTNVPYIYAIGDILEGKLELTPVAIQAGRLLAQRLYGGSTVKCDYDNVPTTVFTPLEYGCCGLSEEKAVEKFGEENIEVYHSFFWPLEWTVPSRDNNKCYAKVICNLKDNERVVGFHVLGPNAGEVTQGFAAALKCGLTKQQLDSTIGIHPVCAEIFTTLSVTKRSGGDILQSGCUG
ASSAY_TEXT: in vitro TrxR DTNB reduction assay
RUN_CONDITIONS: 30 min incubation, 100 nM recombinant rat TrxR, 200 μM NADPH, read-out: TrxR inhibition IC50
In plain terms, low IC50, meaning strictly below 20 µM, gives yes, and everything else gives no.

For orientation, consider the following solved cases.
Cc1ccc(C(=O)/C=C2/C(=O)N(C)c3ccccc32)cc1 [Compound 9]; no
Cc1cccc(C(=O)/C=C2/C(=O)N(C)c3ccccc32)c1 [Compound 8]; no
CC(=O)/C=C1/C(=O)N(C(C)C)c2ccccc21 [Compound 3]; yes

Query block: I'd appreciate it if you could check whether CCN1C(=O)/C(=C/C(C)=O)c2ccccc21 [Compound 2] has IC50 smaller than 20 µM.
Result block: yes

Query block: I'd appreciate it if you could check whether CC(=O)/C=C1/C(=O)N(Cc2ccccc2)c2ccccc21 [Compound 5] has IC50 smaller than 20 µM.
Result block: yes

Query block: I'd appreciate it if you could check whether CN1C(=O)/C(=C/C(=O)c2ccccc2)c2ccccc21 [Compound 6] has IC50 smaller than 20 µM.
Result block: yes

Query block: I'd appreciate it if you could check whether CCCCc1ccc(C(=O)/C=C2/C(=O)N(C)c3ccccc32)cc1 [Compound 12] has IC50 smaller than 20 µM.
Result block: no

Query block: I'd appreciate it if you could check whether CN1C(=O)/C(=C/C(=O)c2ccc(Cl)cc2)c2ccccc21 [Compound 15] has IC50 smaller than 20 µM.
Result block: yes

Query block: I'd appreciate it if you could check whether CC(C)c1ccc(C(=O)/C=C2/C(=O)N(C)c3ccccc32)cc1 [Compound 11] has IC50 smaller than 20 µM.
Result block: no

Query block: I'd appreciate it if you could check whether CC(=O)C=C1C(=O)N(C)c2ccccc21 [Compound 1] has IC50 smaller than 20 µM.
Result block: no

----------
Below, each entry is listed alongside its reported IC50.
TARGET_OR_TEST_SYSTEM: recombinant rat TrxR (Rattus norvegicus)
Sequence (O89049 1-499): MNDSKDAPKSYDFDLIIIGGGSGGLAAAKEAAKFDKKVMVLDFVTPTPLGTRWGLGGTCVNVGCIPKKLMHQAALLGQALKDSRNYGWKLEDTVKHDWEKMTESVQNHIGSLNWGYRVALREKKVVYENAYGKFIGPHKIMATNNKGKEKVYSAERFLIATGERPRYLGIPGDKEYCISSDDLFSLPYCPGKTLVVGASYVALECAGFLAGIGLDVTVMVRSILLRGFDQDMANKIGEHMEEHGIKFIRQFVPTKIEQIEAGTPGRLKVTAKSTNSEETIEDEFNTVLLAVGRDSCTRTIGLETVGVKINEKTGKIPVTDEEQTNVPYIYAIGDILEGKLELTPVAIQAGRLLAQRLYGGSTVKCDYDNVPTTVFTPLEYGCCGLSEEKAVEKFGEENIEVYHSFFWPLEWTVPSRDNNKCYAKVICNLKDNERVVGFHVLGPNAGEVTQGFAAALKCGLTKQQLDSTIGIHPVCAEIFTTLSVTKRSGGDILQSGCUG
ASSAY_TEXT: in vitro TrxR DTNB reduction assay
RUN_CONDITIONS: 30 min incubation, 100 nM recombinant rat TrxR, 200 μM NADPH, read-out: TrxR inhibition IC50
// units = µM; emit number, no label

Here's what some known entries look like.
CN1C(=O)/C(=C/C(=O)c2ccc(F)cc2)c2ccccc21; 18.7
CN1C(=O)/C(=C/C(=O)c2ccccc2C(F)(F)F)c2ccccc21; 28.9
CCc1ccc(C(=O)/C=C2/C(=O)N(C)c3ccccc32)cc1; 19.1
CN1C(=O)/C(=C/C(=O)c2cccc(Cl)c2)c2ccccc21; 18.4
CN1C(=O)/C(=C\C(=O)c2ccc(Cl)cc2)c2ccccc21; 15.9
CCCCN1C(=O)/C(=C/C(C)=O)c2ccccc21; 8.6
CN1C(=O)/C(=C/C(=O)c2cccc(C(F)(F)F)c2)c2ccccc21; 34.2

--- query ---
Query block: Fill in: IC50 of Cc1ccccc1C(=O)/C=C1/C(=O)N(C)c2ccccc21 is ___
Result block: 19

----------
System: HCT 116 cells
In plain terms, low GI50, meaning strictly below 10 µM, gives y, and everything else gives n.

For orientation, consider the following solved cases.
Cc1ccccc1C(=O)/C=C1/C(=O)N(C)c2ccccc21; n
Cc1ccc(C(=O)/C=C2/C(=O)N(C)c3ccccc32)cc1; n
CC(=O)C=C1C(=O)N(C)c2ccccc21; n

# next molecule below
Query block: I'd appreciate it if you could check whether CCN1C(=O)/C(=C/C(C)=O)c2ccccc21 has GI50 smaller than 10 µM.
Result block: y

----------
Test system: HCT 116 cells
READOUT_KIND: GI50

CCCCc1ccc(C(=O)/C=C2/C(=O)N(C)c3ccccc32)cc1 [Compound 12]; 13.5 µM
CN1C(=O)/C(=C/C(=O)c2cccc(Cl)c2)c2ccccc21 [Compound 14]; 15.6 µM
CN1C(=O)/C(=C\C(=O)c2ccc(Cl)cc2)c2ccccc21 [Compound 20]; 16.1 µM
CC(=O)/C=C1/C(=O)N(C(C)C)c2ccccc21 [Compound 3]; 5.3 µM
Cc1cccc(C(=O)/C=C2/C(=O)N(C)c3ccccc32)c1 [Compound 8]; 10.4 µM

Query block: Fill in: GI50 of CC(C)c1ccc(C(=O)/C=C2/C(=O)N(C)c3ccccc32)cc1 [Compound 11] is ___
Result block: 14.4 µM
